Cited source: patent US9079899B2

Reported MIC values, S. aureus (ATCC 12598).
Use µg/mL as the unit, but write only the number.

Cc1ccc(-c2ccc(-c3cc(C(F)(F)F)nn3-c3ccc(NS(N)(=O)=O)cc3)cc2)cc1    1
NS(=O)(=O)Nc1ccc(-n2nc(C(F)(F)F)cc2-c2ccc(-c3ccccc3)cc2)cc1    1
Cc1ccc(-c2cc(C(F)(F)F)nn2-c2ccc(NS(N)(=O)=O)cc2)cc1    4

Query MIC on S. aureus (ATCC 12598) for NS(=O)(=O)Nc1ccc(-n2nc(C(F)(F)F)cc2-c2ccc(-c3ccc(Br)cc3)cc2)cc1
1

----------
Reported MIC values for the following compounds.
system: MRSA (SCCmec VT); assay: MIC, broth microdilution; assay type: cell-based, methicillin-resistant Staphylococcus aureus; settings: Staphylococcus aureus, MRSA; read-out: MIC MRSA (SCCmec VT)
Entry rule: numbers only, all in µg/mL.

Recorded MIC, per entry:
Cc1ccc(-c2ccc(-c3cc(C(F)(F)F)nn3-c3ccc(NS(N)(=O)=O)cc3)cc2)cc1 [Compound 43]    1
NS(=O)(=O)Nc1ccc(-n2nc(C(F)(F)F)cc2-c2ccc(-c3ccc(Br)cc3)cc2)cc1 [Compound 44]    1
NS(=O)(=O)Nc1ccc(-n2nc(C(F)(F)F)cc2-c2ccc3cc4ccccc4cc3c2)cc1 [Compound 47]    2
Cc1ccc(-c2cc(C(F)(F)F)nn2-c2ccc(NS(N)(=O)=O)cc2)cc1 [Compound 41]    4

Lab request: please report MIC under test system MRSA (SCCmec VT) for NS(=O)(=O)Nc1ccc(-n2nc(C(F)(F)F)cc2-c2ccc(-c3ccccc3)cc2)cc1 [Compound 42]
1
